# System name: Bifunctional protein GlmU (Escherichia coli (strain K12))
# Sequence (P0ACC7 whole entry): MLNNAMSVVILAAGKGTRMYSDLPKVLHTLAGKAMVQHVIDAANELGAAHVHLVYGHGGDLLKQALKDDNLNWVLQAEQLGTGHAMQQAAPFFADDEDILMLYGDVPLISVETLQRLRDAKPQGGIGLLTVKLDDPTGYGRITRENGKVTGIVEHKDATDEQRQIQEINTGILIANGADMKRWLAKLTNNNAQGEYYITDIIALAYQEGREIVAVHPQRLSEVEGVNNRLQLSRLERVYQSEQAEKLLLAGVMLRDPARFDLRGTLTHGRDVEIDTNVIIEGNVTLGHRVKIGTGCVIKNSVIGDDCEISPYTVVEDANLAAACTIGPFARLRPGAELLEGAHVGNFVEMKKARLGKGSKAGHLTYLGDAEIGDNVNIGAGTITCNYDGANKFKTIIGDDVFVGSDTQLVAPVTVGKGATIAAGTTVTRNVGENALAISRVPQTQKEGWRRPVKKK
# Experimental protocol: Inhibition of Escherichia coli GlmU acetyltransferase activity assessed as coenzyme A production using acetyl CoA substrate
pIC50: −log10 of the molar value.
Outcome measure: pIC50

Solved entries (count: 3):
| Entry smiles | System name | pIC50 |
| --- | --- | --- |
| COc1cc(OC)c(S(=O)(=O)N2c3ccccc3CC[C@H]2C)cc1NC(=O)CSc1ccncc1 | Bifunctional protein GlmU (Escherichia coli (strain K12)) | 6.00 |
| COc1cc(OC)c(S(=O)(=O)N2c3ccccc3Oc3ccccc32)cc1NC(=O)CCC(=O)O | Bifunctional protein GlmU (Escherichia coli (strain K12)) | 8.00 |
| COc1cc(OC)c(S(=O)(=O)Nc2ccccc2)cc1NC(C)=O | Bifunctional protein GlmU (Escherichia coli (strain K12)) | 4.70 |

I = COc1cc(OC)c(S(=O)(=O)N2c3ccccc3CC[C@H]2C)cc1NC(=O)COC(C)=O
II = COc1cc(OC)c(S(=O)(=O)N2c3ccccc3CC[C@@H]2C)cc1NC(=O)CCC(=O)O
III = COc1cc(OC)c(S(=O)(=O)N2c3ccccc3Oc3ccccc32)cc1NC(=O)/C=C/C(=O)O
IV = COc1cc(OC)c(S(=O)(=O)Nc2cccc(F)c2)cc1NC(C)=O
V = COc1cc(OC)c(S(=O)(=O)N2c3ccccc3CC[C@@H]2C)cc1NC(=O)CCc1nn[nH]n1
Thanks in advance: please rank these 5 entries by pIC50, highest to lowest. Give your ranking as a list of the labels in the requested order.
III, II, V, I, IV
(III: 8.00, II: 7.05, V: 6.37, I: 5.70, IV: 4.82)
